biological target: human GlyT1c transporter (Homo sapiens (Human)); test: Radioligand binding assay using recombinant CHO cell membranes expressing human GlyT1; conditions: human GlyT1c-expressing CHO cell membranes; read-out: radioligand binding Kiapp
Where a name gives a salt, the structure may show the parent alone.
Value type: Ki

Would you please look over these solved cases?
## Task Name the recorded Ki for CN(CCOc1ccc2c(c1)C(Cc1ccc(Cl)c(Cl)c1)C(N1CCCC1)CC2)S(=O)(=O)c1cnn(C)c1 (centres unmarked) [Example 89, hydrochloride] .
## Result ≤ 100 nM

## Task Same read-out for O=S(=O)(CC1CC1)NCCOc1ccc2c(c1)C(Cc1ccccc1)C(N1CCCC1)CC2 (centres unmarked) [Example 133, hydrochloride] ?
## Result ≤ 100 nM

## Task What do we get for Cn1ccc(S(=O)(=O)NCCOc2ccc3c(c2)C(Cc2ccccc2)C(N2CCC2)CC3)c1 (centres unmarked) ?
## Result ≤ 10 nM

More entries:
## Task Endpoint output: Ki of COc1cccc(CC2c3cc(OCCNS(=O)(=O)c4cn(C)cn4)ccc3CCC2N2CCCC2)c1 (centres unmarked) [Example 164, hydrochloride] . Value?
## Result ≤ 10 nM

## Task Thanks! And NC1CCc2ccc(CNS(=O)(=O)CCCF)cc2C1Cc1ccc(Cl)c(Cl)c1 (centres unmarked) [Example 41, hydrochloride] ?
## Result ≤ 10000 nM

## Task Same question, CN(CCOc1ccc2c(c1)C(Cc1ccc(Cl)c(Cl)c1)C(N)CC2)S(=O)(=O)CC1CC1 (centres unmarked) [Example 108, hydrochloride] this time
## Result ≤ 10 nM

## Task What about O=S(=O)(CC1CC1)NCCOc1ccc2c(c1)C(Cc1ccc(Cl)c(Cl)c1)C(N1CCCC1)CC2 (centres unmarked) [Example 132, hydrochloride] ?
## Result ≤ 100 nM

## Task Now the compound CCOC(=O)NC1CCc2ccc(OCCNS(=O)(=O)c3ccc(Cl)s3)cc2C1Cc1cccc(Cl)c1 (centres unmarked)
## Result ≤ 100000 nM

## Task Another: CCNC1CCc2ccc(CCCNS(=O)(=O)CC3CC3)cc2C1Cc1ccccc1 (centres unmarked) [Example 224, hydrochloride]
## Result ≤ 100 nM

## Task Subsequent entry: Cn1cnc(S(=O)(=O)NCCOc2ccc3c(c2)C(Cc2ccccc2)C(N2CCC(F)C2)CC3)c1 (centres unmarked) [Example 152, hydrochloride]
## Result ≤ 10 nM

## Task Now this one: Cn1cc(S(=O)(=O)NCCOc2ccc3c(c2)C(Cc2ccc(Cl)cc2)C(N)CC3)cn1 (centres unmarked) [Example 28, hydrochloride]
## Result ≤ 10 nM

## Task Next: NC1CCc2ccc(CCCNS(=O)(=O)CC3CC3)cc2C1Cc1ccccc1Cl (centres unmarked) [Example 212, hydrochloride]
## Result ≤ 1000 nM

## Task Another compound: Cn1cnc(S(=O)(=O)NCc2ccc3c(c2)C(Cc2ccc(F)cc2)C(N)CC3)c1 (centres unmarked) [Example 176, hydrochloride]
## Result ≤ 100 nM

## Task Same thing, different compound: CCCCS(=O)(=O)NCCOc1ccc2c(c1)C(Cc1ccc(Cl)c(Cl)c1)C(N)CC2 (centres unmarked) [Example 90, hydrochloride]
## Result ≤ 1000 nM

## Task Let us now turn to NC1CCc2ccc(OCCNS(=O)(=O)C3CCNC3)cc2C1Cc1ccc(Cl)c(Cl)c1 (centres unmarked) [Example 19, hydrochloride]
## Result ≤ 10000 nM

## Task Try NC1CCc2ccc(CCCNS(=O)(=O)CC3CC3)cc2C1Cc1cccc(F)c1 (centres unmarked) [Example 210, hydrochloride] next.
## Result ≤ 100 nM

## Task // query: CCCS(=O)(=O)NCCOc1ccc2c(c1)C(Cc1ccc(Cl)c(Cl)c1)C(NC(=O)OCC)CC2 (centres unmarked)
## Result ≤ 10000 nM

## Task Could you do the same for CCCS(=O)(=O)NCCCc1ccc2c(c1)C(Cc1ccccc1)C(NC(C)C)CC2 (centres unmarked) [Example 273, hydrochloride] , please?
## Result ≤ 1000 nM

## Task And the next one, Cn1cnc(S(=O)(=O)NCc2ccc3c(c2)C(Cc2ccccc2)C(N2CCOCC2)CC3)c1 (centres unmarked) ?
## Result ≤ 100 nM

## Task Now this one: CN(CCOc1ccc2c(c1)C(Cc1ccc(Cl)cc1)C(N)CC2)S(=O)(=O)CC1CC1 (centres unmarked) [Example 129, hydrochloride]
## Result ≤ 10 nM

## Task Note, next up: CN(CCOc1ccc2c(c1)C(Cc1ccccc1)C(N)CC2)S(=O)(=O)c1cn(C)cn1 (centres unmarked) [Example 98, hydrochloride]
## Result ≤ 1000 nM

---

target: human GlyT1c transporter (Homo sapiens (Human)); experiment: Radioligand binding assay using recombinant CHO cell membranes expressing human GlyT1; details: human GlyT1c-expressing CHO cell membranes; hydrochloride; read-out: radioligand binding Kiapp
pKi: −log10 of the molar value. Structures can show the parent of a compound that is named as a salt.
Reported pKi values for the following compounds.

// below: answered compounds
## Task I have this compound here, NC1CCc2ccc(OCCNS(=O)(=O)CCC(F)(F)F)cc2C1Cc1ccccc1 (centres unmarked) [Example 100, hydrochloride] , and I need its recorded pKi.
## Result ≥ 6.00

## Task Repeat with Cn1cnc(S(=O)(=O)NCCOc2ccc3c(c2)C(Cc2ccccc2)C(N2CCCC2)CC3)c1 (centres unmarked) [Example 116, hydrochloride]
## Result ≥ 8.00

## Task Field entry: Cn1cnc(S(=O)(=O)NCCOc2ccc3c(c2)C(Cc2ccccc2)C(N2CCCC2)CC3)c1 (single isomer, unassigned; (-)) [Example 117, hydrochloride]
## Result ≥ 8.00

## Task Next up: Cn1cnc(S(=O)(=O)NCCOc2ccc3c(c2)C(Cc2ccccc2)C(N2CCCC2)CC3)c1 (single isomer, unassigned; (+)) [Example 118, hydrochloride]
## Result ≥ 7.00

Let us move to another entry and its pKi.
## Task # lookup: pKi of O=S(=O)(CC1CC1)NCCOc1ccc2c(c1)C(Cc1ccccc1)C(N1CCC1)CC2 (centres unmarked) [Example 142, hydrochloride]
## Result ≥ 7.00

---

# Lookup of reported Ki keyed by entry
target: UniProt:P48067; assay: Radioligand binding assay using recombinant CHO cell membranes expressing human GlyT1; conditions: human GlyT1c-expressing CHO cell membranes; read-out: radioligand binding Kiapp
Counter-ions that a name gives are not always drawn.

Below, 3 compounds whose answers are already recorded.
## Task Requested read-out: Ki. Entry: Cc1cccc(CC2c3cc(OCCNS(=O)(=O)c4cn(C)cn4)ccc3CCC2N2CCCC2)c1 (stereo not shown) [Example 163]
## Result ≤ 0.01 µM

## Task What about this compound? CCCS(=O)(=O)N1CC(COc2ccc3c(c2)C(Cc2cccc(Cl)c2)C(N)CC3)C1 (stereo not shown) [Example 286, hydrochloride]
## Result ≤ 10 µM

## Task And the next one, CCCS(=O)(=O)NCCCc1ccc2c(c1)C(Cc1ccccc1Cl)C(N)CC2 (stereo not shown) [Example 211, hydrochloride] ?
## Result ≤ 1 µM

Next:
## Task Look up Ki for this compound: CCCS(=O)(=O)NCc1ccc2c(c1)C(Cc1ccc(Cl)c(Cl)c1)C(NC(=O)OC(C)(C)C)CC2 (stereo not shown) [Example 39]
## Result ≤ 10 µM

---

molecular target: human GlyT1c transporter (Homo sapiens (Human), UniProt P48067); assay: Radioligand binding assay using recombinant CHO cell membranes expressing human GlyT1; conditions: human GlyT1c-expressing CHO cell membranes; read-out: radioligand binding Kiapp
Sequence (P48067 whole entry): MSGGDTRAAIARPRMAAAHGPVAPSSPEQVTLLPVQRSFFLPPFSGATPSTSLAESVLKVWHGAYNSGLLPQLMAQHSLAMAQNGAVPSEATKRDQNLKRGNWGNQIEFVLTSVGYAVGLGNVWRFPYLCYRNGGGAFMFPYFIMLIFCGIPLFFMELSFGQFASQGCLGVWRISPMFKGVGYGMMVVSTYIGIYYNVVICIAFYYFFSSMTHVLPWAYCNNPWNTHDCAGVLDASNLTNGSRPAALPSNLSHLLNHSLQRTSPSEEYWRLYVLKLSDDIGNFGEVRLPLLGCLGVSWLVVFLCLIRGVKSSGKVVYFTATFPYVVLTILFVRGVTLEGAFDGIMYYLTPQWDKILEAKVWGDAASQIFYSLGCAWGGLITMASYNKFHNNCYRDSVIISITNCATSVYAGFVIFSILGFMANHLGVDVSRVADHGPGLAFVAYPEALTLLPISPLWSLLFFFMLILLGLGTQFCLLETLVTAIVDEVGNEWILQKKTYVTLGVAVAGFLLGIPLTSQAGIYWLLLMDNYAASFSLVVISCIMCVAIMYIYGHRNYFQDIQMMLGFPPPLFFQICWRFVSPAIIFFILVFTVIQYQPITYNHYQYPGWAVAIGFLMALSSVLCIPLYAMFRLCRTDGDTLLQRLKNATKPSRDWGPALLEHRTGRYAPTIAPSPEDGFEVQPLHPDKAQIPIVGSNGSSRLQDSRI
Where a name gives a salt, the structure may show the parent alone.
Value type: Ki

Some compounds with recorded Ki:
## Task Quick one: Ki for CCCS(=O)(=O)NCCCc1ccc2c(c1)C(Cc1ccc(Cl)cc1)C(N)CC2 (stereo not shown) [Example 201, hydrochloride] ?
## Result ≤ 0.1 µM

## Task Do the same for O=S(=O)(NCc1ccc2c(c1)C(Cc1ccccc1)C(N1CCC1)CC2)c1cccs1 (single isomer, unassigned; enantiomer 1) [Example 255] please
## Result ≤ 1 µM

## Task Here is the next compound: CCOCCS(=O)(=O)NCCOc1ccc2c(c1)C(Cc1ccc(Cl)c(Cl)c1)C(N)CC2 (stereo not shown) [Example 93, hydrochloride]
## Result ≤ 1 µM

Here is another compound to look at.
## Task Name the reported Ki value associated with the compound NC1CCc2ccc(CNS(=O)(=O)C3CCC3)cc2C1Cc1cccc(F)c1 (stereo not shown) [Example 184, hydrochloride]
## Result ≤ 0.1 µM

---

Parameter: Ki. Scope: all listed entries.
target: UniProtKB P48067; experiment: Radioligand binding assay using recombinant CHO cell membranes expressing human GlyT1; conditions: human GlyT1c-expressing CHO cell membranes; read-out: radioligand binding Kiapp
Where a name gives a salt, the structure may show the parent alone.

## Task Looking for the measured Ki of CCC(=O)NCCOc1ccc2c(c1)C(Cc1ccccc1)C(N)CC2 (stereo not shown) [Example 103, hydrochloride] , can you help?
## Result ≤ 10 µM

Others:
## Task Which Ki value is on record for Cc1cc(S(=O)(=O)NCCOc2ccc3c(c2)C(Cc2cccc(Cl)c2)C(N)CC3)c(C)s1 (stereo not shown) [Example 69, hydrochloride] ?
## Result ≤ 1 µM

## Task Input Cn1cnc(S(=O)(=O)NCCOc2ccc3c(c2)C(Cc2ccc(Cl)cc2)C(N)CC3)c1 (stereo not shown) [Example 27, hydrochloride]
## Result ≤ 0.01 µM

## Task // next record CCN(CCOc1ccc2c(c1)C(Cc1ccccc1)C(N)CC2)S(=O)(=O)c1cnn(C)c1 (stereo not shown) [Example 113, hydrochloride]
## Result ≤ 0.1 µM

## Task And the next one, CNC1CCc2ccc(CNS(=O)(=O)c3cccc(C)c3)cc2C1Cc1ccccc1 (stereo not shown) [Example 189, hydrochloride] ?
## Result ≤ 10 µM

## Task Query CCCS(=O)(=O)NCCOc1ccc2c(c1)C(CC1CCCCC1)C(NC)CC2 (stereo not shown) [Example 314, trifluoroacetate] next
## Result ≤ 1 µM

## Task Item: NC1CCc2ccc(CCCNS(=O)(=O)CC3CC3)cc2C1Cc1cccc(Cl)c1 (stereo not shown) [Example 296, hydrochloride]
## Result ≤ 0.1 µM
